The compounds listed here are annotated with their IC50.
Target: PI3Kδ kinase (p110δ/p85α) (Homo sapiens)
Sequence (O00329 whole entry): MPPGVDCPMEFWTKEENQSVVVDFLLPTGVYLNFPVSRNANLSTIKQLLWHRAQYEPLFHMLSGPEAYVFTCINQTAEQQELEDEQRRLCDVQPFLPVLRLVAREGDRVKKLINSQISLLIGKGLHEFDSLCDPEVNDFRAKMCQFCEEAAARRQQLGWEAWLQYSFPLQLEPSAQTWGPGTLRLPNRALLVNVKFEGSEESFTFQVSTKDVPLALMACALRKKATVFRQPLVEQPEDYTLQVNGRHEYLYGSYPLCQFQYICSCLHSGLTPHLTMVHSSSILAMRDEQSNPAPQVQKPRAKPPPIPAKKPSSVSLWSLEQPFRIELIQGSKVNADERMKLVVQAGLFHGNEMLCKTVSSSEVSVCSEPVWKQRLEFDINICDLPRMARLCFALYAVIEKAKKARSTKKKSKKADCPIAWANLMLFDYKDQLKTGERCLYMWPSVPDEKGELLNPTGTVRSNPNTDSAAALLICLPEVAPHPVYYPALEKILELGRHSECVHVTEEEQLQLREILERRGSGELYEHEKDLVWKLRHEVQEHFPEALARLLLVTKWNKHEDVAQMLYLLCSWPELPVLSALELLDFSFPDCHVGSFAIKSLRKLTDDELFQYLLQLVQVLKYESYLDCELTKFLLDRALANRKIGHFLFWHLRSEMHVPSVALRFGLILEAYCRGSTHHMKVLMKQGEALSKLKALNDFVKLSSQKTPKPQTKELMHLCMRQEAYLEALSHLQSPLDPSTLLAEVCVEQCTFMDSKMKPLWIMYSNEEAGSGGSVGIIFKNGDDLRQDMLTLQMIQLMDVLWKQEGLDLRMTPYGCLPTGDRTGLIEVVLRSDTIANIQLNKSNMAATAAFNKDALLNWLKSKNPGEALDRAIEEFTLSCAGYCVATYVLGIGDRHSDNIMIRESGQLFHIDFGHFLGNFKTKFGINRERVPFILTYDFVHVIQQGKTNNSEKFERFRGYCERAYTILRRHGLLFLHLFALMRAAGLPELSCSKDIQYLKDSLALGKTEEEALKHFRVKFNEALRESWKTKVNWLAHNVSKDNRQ
Sequence (P27986 whole entry partner): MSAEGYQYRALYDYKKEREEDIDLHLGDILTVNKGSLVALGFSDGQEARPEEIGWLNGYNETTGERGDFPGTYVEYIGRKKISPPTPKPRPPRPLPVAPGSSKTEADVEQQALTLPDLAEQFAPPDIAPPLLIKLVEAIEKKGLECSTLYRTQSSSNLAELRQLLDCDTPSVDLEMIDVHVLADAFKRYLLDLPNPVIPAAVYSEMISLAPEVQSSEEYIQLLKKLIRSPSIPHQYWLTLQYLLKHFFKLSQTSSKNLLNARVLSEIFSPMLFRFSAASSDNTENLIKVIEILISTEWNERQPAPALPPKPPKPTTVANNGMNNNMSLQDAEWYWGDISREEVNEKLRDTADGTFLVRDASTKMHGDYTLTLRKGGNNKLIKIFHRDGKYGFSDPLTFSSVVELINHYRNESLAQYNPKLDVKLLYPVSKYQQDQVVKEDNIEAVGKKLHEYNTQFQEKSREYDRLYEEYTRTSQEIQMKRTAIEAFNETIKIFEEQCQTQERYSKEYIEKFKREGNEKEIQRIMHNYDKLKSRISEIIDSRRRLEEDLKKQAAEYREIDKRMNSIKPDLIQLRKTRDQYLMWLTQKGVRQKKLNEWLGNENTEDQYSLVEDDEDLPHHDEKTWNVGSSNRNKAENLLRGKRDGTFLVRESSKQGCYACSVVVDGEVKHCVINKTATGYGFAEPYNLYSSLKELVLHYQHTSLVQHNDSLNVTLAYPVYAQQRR
Test: Activity of PI3Kδ kinase by ADP-Glo method
Conditions: 17 nM kinase, 50 μM PIP2, 25 μM ATP

1) C[C@H](Nc1nc(N)nc(N)c1C#N)c1cn2ncc(Cl)c2nc1-c1ccccc1
< 0.02 µM
2) C[C@H](Nc1nc(N)nc(N)c1C#N)c1cn2ncc(Cl)c2nc1-c1cccc(F)c1
< 0.02 µM
3) Cc1nc(N)nc(N[C@@H](C)c2cn3ncc(Cl)c3nc2-c2ccccc2)c1C#N
< 0.02 µM
4) C[C@H](Nc1ncnc(N)c1C#N)c1cn2ncc(Cl)c2nc1-c1ccccc1
< 0.02 µM

Please look at the following compound next.
[in] Specify measured IC50 for C[C@H](Nc1ncnc(N)c1C#N)c1cn2ncc(Cl)c2nc1-c1cccc(F)c1 .
[out] < 0.02 µM
